Where these numbers come from: patent US20230348616A1

# target_of_assay: T1, 5A
# T1 construct: also called HLA-A2 / point-mutant NY-ESO peptide 5A complex on T2 cells
# measurement_notes: flow cytometry on peptide-pulsed T2 cells, scFv 100 nM
We'd kindly ask you to apply these standardized gMFI classes: bottom = under 0.7, middle = from 0.7 up to 0.8, top = 0.8 and over

Task: In plain terms, what class is NYA-2027 (scFv) scFv: GEVQLVESGGGVVQPGRSLTPSCSASGFSIRSYDIHWVRQAPGKGLEWVATISYDGSQKYFADSVKGRFTIFRDESENMVYLQMSGLRVEDTAVYHCARGSSGHYEAFDIWGQGTMVTVSSGGGGSGGGGSGGGGSQSVLTQPPSVSAAPGQKVTISCSGSSSNIGNNYVSWYQQLPGTAPKLLIYDNNKRPSGIPDRFSGSKSGTSATLGITGLQTGDEADYYCGSWDSSLSAPWVFGGGTKVTVLGAAAGAGGDYKDDDDKGAAAHHHHHH ?
Result: middle

Task: In plain terms, what class is NYC-0004 (scFv, not shown: small tags and cut ends, also called T1 scFv; NYC-0004 tag adduct) scFv: EVQLLESGGGLVQPGGSLRLSCAASGFTFSTYQMSWVRQAPGKGLEWVSGIVSSGGSTAYADSVKGRFTISRDNSKNTLYLQMNSLRAEDTAVYYCAGELLPYYGMDVWGQGTTVTVSSGGGGSGGGGSGGGGSQSELTQPRSVSGSPGQSVTISCTGTERDVGGYNYVSWYQQHPGKAPKLIIHDVIERSSGVPDRFSGSKSGNTASLTISGLQAEDEADYYCWSFAGGYYVFGTGTDVTVL ?
Result: bottom

Task: In plain terms, what class is NYA-1143 (scFv) scFv: GEVQLVESGGGVVQPGRSLTPSCSASGFSIRSYDIHWVRLAPGKGLEWVATISYDGSQKYFADSVKGRFTIFRDESENMVYLQMSGLRVEDTAVYHCARGSSGHYEAFDIWGQGTMVTVSSGGGGSGGGGSGGGGSQSVLTQPPSVSAAPGQKVTISCSGSSSNIGNWYVSWYQQLPGTAPKLLIYDNNKRPSGIPDRFSGSKSGTSATLGITGLQTGDEADYYCGTWDSSLSAPWVFGGGTKVTVLGAAAGAGGDYKDDDDKGAAAHHHHHH ?
Result: top

***
Task: In plain terms, what class is NYA-2048 (scFv, also called NYA-2048 tag adduct) scFv: GQVQLVESGGGVVQPGRSLRLSCAASGFSIRSYDMHWVRQAPGKGLEWVATISYDGSQKYYADSVKGRFTISRDNSKNTLYLQMSSLRAEDTAVYHCARGSSGHYEAFDIWGQGTLVTVSSGGGGSGGGGSGGGGSQSVLTQPPSASGTPGQRVTISCSGSSSNIGNWYVSWYQQLPGTAPKLLIYDNNKRPSGVPDRFSGSKSGTSASLAISGLQSEDEADYYCGTWDSSLSAPWVFGGGTKLTVLGAAAGAGGDYKDDDDKGAAAHHHHHH ?
Result: bottom

Task: In plain terms, what class is NYA-1163 (scFv) scFv: GEVQLVESGGGVVQPGRSLTPSCSASGFSIRSYDIHWVRLAPGKGLEWVATISYDGSQKYFADSVKGRFTIFRDESENMVYLQMSGLRVEDTAVYHCARGSSGHYEAFDIWGQGTMVTVSSGGGGSGGGGSGGGGSQSVLTQPPSVSAAPGQKVTISCSGSSSNIGNNYVSWYQQLPGTAPKLLIYDNNKRPSGIPDRFSGSKSGTSATLGITGLQTGDEADYYCGTWDSSLSAPWVFGGGTKVTVLGAAAGAGGDYKDDDDKGAAAHHHHHH ?
Result: bottom

Task: In plain terms, what class is NYA-2061 (scFv, also called NYA-2061 tag adduct) scFv: GEVQLVESGGGLVQPGGSLRLSCAASGFSIRSYDIHWVRQAPGKGLEWVATISYDGSQKYYADSVKGRFTISRDESKNTLYLQMNSLRAEDTAVYHCARGSSGHYEAFDIWGQGTLVTVSSGGGGSGGGGSGGGGSQSVLTQPPSASGTPGQRVTISCSGSSSNIGNWYVSWYQQLPGTAPKLLIYDNNKRPSGVPDRFSGSKSGTSASLAISGLQSEDEADYYCGTWDSSLSAPWVFGGGTKLTVLGAAAGAGGDYKDDDDKGAAAHHHHHH ?
Result: bottom
